Test system: Vasopressin V2
EXPERIMENTAL PROTOCOL: Vasopressin V2 Antagonist Activity in Conscious Hydrated Rats
Assay type: in vivo, rat
CONDITION DESCRIPTION: 30 mg/kg orally, AVP 0.4 μg/kg i.p.
# note: boundary value 8 ml/4 hrs maps to 0; Urine Volume below it maps to 1

Reference set (3 entries):
SMILES STR | TEST TARGET | CLASSIFICATION
O=C(Nc1ccc(C(=O)N2Cc3cccn3Cc3ccccc32)cc1)c1ccccc1Cl | Vasopressin V2 | 0
O=C(Nc1ccc(C(=O)N2Cc3cccn3Cc3ccccc32)cc1)c1ccc(Cl)cc1Cl | Vasopressin V2 | 0
O=C(Nc1ccc(C(=O)N2Cc3cccn3-c3ccccc32)cc1)c1ccc(Cl)cc1Cl | Vasopressin V2 | 1

QUERY: Urine Volume under 8 ml/4 hrs? Item: "Cc1cc(C(=O)N2Cc3cccn3Cc3ccccc32)ccc1NC(=O)c1ccc(Cl)cc1Cl"
RESULT: 0

QUERY: Urine Volume under 8 ml/4 hrs? Item: "Cc1ccsc1C(=O)Nc1ccc(C(=O)N2Cc3cccn3Cc3ccccc32)cc1"
RESULT: 1

QUERY: Urine Volume under 8 ml/4 hrs? Item: "O=C(Nc1ccc(C(=O)N2Cc3cccn3Cc3ccccc32)cc1)c1ccccc1F"
RESULT: 0

QUERY: Urine Volume under 8 ml/4 hrs? Item: "O=C(Nc1ccc(C(=O)N2Cc3cccn3Cc3ccccc32)cc1)c1cccc(F)c1F"
RESULT: 1

QUERY: Urine Volume under 8 ml/4 hrs? Item: "O=C(Nc1ccc(C(=O)N2Cc3cccn3Cc3ccccc32)cc1)C1CCCCC1"
RESULT: 1

Value source: patent US5624923A
